Type: physicochemical
Details: 25° C., 10 days
Where a SMILES comes first, the peptide text is derived from it. [ ]: non-standard residue; d: D form. The star is where a group is joined. Gly(N-(2R-Ph-propyl)) = C[C@@H](CNCC(=O)O)c1ccccc1; Piperidin1yl(4-NH2,4-COOH) = NC1(C(=O)O)CCN(*)CC1
Reported Purity % values for the following compounds.
Expressed in %, but write only the number.

Compound: CC(C)C[C@@H](NC(=O)[C@@H](Cc1ccccc1)NC(=O)CNC[C@H](C)c1ccccc1)C(=O)N[C@H](CCCCN)C(=O)N1CCC(N)(C(=O)O)CC1 [Embodiment 4] (H-[Gly(N-(2R-Ph-propyl))][dF][dL][dK]-{Piperidin1yl(4-NH2,4-COOH)})
Units Label: %
Purity %: 97.44
--
Compound: CC(C)C[C@@H](NC(=O)[C@@H](Cc1ccccc1)NC(=O)CNC[C@H](C)c1ccccc1)C(=O)N[C@H](CCCCN)C(=O)N1CCC(N)(C(=O)O)CC1 [Embodiment 12] (H-[Gly(N-(2R-Ph-propyl))][dF][dL][dK]-{Piperidin1yl(4-NH2,4-COOH)})
Units Label: %
Purity %: 96.80
--
Compound: CC(C)C[C@@H](NC(=O)[C@@H](Cc1ccccc1)NC(=O)CNC[C@H](C)c1ccccc1)C(=O)N[C@H](CCCCN)C(=O)N1CCC(N)(C(=O)O)CC1 [Embodiment 6] (H-[Gly(N-(2R-Ph-propyl))][dF][dL][dK]-{Piperidin1yl(4-NH2,4-COOH)})
Units Label: %
Purity %: 99.27

(Q) May I ask what Purity % has been recorded for CC(C)C[C@@H](NC(=O)[C@@H](Cc1ccccc1)NC(=O)CNC[C@H](C)c1ccccc1)C(=O)N[C@H](CCCCN)C(=O)N1CCC(N)(C(=O)O)CC1 [Embodiment 2] (H-[Gly(N-(2R-Ph-propyl))][dF][dL][dK]-{Piperidin1yl(4-NH2,4-COOH)}) ?
(A) 97.64
